protocol_summary: Pharmacokinetics and bioavailability of oral vs intravenous baclofen, randomized open-label 2-way crossover study (Example 3)
Type: in vivo, human
run_conditions: human; 10 mg oral tablet, single dose, plasma, mean ± SD
parameter: Cmax

compound="NCC(CC(=O)O)c1ccc(Cl)cc1 (racemic)" measured="174 ng/mL"

###

protocol_summary: Pharmacokinetics of oral and intravenous baclofen at clinically relevant doses, dose escalation crossover study (Example 4)
Type: in vivo, human
run_conditions: human, plasma, po, 10 mg, PO 10 mg, mean
parameter: half-life (h)

compound="NCC(CC(=O)O)c1ccc(Cl)cc1 (racemic) [Baclofen, 4-amino-3-(4-chlorophenyl) butanoic acid]" measured=3.94

###

protocol_summary: Pharmacokinetics and bioavailability of oral vs intravenous baclofen, randomized open-label 2-way crossover study (Example 3)
Type: in vivo, human
run_conditions: human, plasma; 5 mg IV, mean ± SD
parameter: AUC(0-t) (ng·h/mL)

compound="NCC(CC(=O)O)c1ccc(Cl)cc1 (racemic)" parameter=AUC(0-t) unit_abbreviation=ng·h/mL measured=593

###

protocol_summary: Pharmacokinetics of oral and intravenous baclofen at clinically relevant doses, dose escalation crossover study (Example 4)
Assay type: in vivo, human
run_conditions: human, plasma; PO 15 mg (cohort 2), mean; read-out: Bioavailability
Procedure: Thirty-six healthy adults participated in the study. The thirty-six subjects were enrolled in a randomized, open-label, cross over study to evaluate the safety profile and pharmacokinetics of oral and an investigational intravenous baclofen formulation at clinically relevant doses. […] Over this 24 hour period subjects were assessed for sedation, nystagmus and ataxia to evaluate clinical response. […] Absolute bioavailability was calculated using dose normalized oral and intravenous AUCs. […]
parameter: bioavailability (%)

molecule="NCC(CC(=O)O)c1ccc(Cl)cc1 (racemic)" parameter=bioavailability measured=80

###

protocol_summary: Pharmacokinetics of oral and intravenous baclofen at clinically relevant doses, dose escalation crossover study (Example 4)
Assay type: in vivo, human
run_conditions: human, plasma, po, 15 mg, PO 15 mg, mean
parameter: Cmax (ng/mL)

compound="NCC(CC(=O)O)c1ccc(Cl)cc1 (racemic)" parameter=Cmax measured=201

###

protocol_summary: Pharmacokinetics and bioavailability of oral vs intravenous baclofen, randomized open-label 2-way crossover study (Example 3)
Format: in vivo, human
run_conditions: human, plasma; 10 mg oral, mean ± SD
parameter: AUC(0-t) (ng·h/mL)

compound="NCC(CC(=O)O)c1ccc(Cl)cc1 (racemic)" unit_abbreviation=ng·h/mL measured=878

###

protocol_summary: Pharmacokinetics and bioavailability of oral vs intravenous baclofen, randomized open-label 2-way crossover study (Example 3)
Assay type: in vivo, human
run_conditions: human, plasma, iv, 5 mg, 5 mg IV, mean ± SD
parameter: half-life (h)

compound="NCC(CC(=O)O)c1ccc(Cl)cc1 (racemic) [Baclofen, 4-amino-3-(4-chlorophenyl) butanoic acid]" measured=4.52

###

protocol_summary: Pharmacokinetics and bioavailability of oral vs intravenous baclofen, randomized open-label 2-way crossover study (Example 3)
Assay type: in vivo, human
run_conditions: human, plasma; 10 mg oral; median (min, max)
parameter: Tmax (h)

compound="NCC(CC(=O)O)c1ccc(Cl)cc1 (racemic) [Baclofen, 4-amino-3-(4-chlorophenyl) butanoic acid]" unit_abbreviation=h measured=1

###

protocol_summary: Pharmacokinetics of oral and intravenous baclofen at clinically relevant doses, dose escalation crossover study (Example 4)
Format: in vivo, human
run_conditions: human, plasma, po, 10 mg, PO 10 mg, mean
parameter: Cmax (ng/mL)

compound="NCC(CC(=O)O)c1ccc(Cl)cc1 (racemic) [Baclofen, 4-amino-3-(4-chlorophenyl) butanoic acid]" parameter=Cmax unit_abbreviation=ng/mL measured=124

###

protocol_summary: Pharmacokinetics of oral and intravenous baclofen at clinically relevant doses, dose escalation crossover study (Example 4)
Assay type: in vivo, human
run_conditions: human, plasma, iv, 7.5 mg, IV 10 min infusion 7.5 mg, mean
parameter: half-life (h)

compound="NCC(CC(=O)O)c1ccc(Cl)cc1 (racemic)" parameter=half-life measured=3.37

###

protocol_summary: Pharmacokinetics of oral and intravenous baclofen at clinically relevant doses, dose escalation crossover study (Example 4)
Assay type: in vivo, human
run_conditions: human, plasma, iv, 15 mg, IV 10 min infusion 15 mg, mean
parameter: half-life (h)

compound="NCC(CC(=O)O)c1ccc(Cl)cc1 (racemic)" measured=5.82

###

protocol_summary: Pharmacokinetics of oral and intravenous baclofen at clinically relevant doses, dose escalation crossover study (Example 4)
Type: in vivo, human
run_conditions: human, plasma, oral; data from all cohorts combined; read-out: mean bioavailability
parameter: bioavailability (%)

compound="NCC(CC(=O)O)c1ccc(Cl)cc1 (racemic)" unit_abbreviation=% measured=89

###

protocol_summary: Pharmacokinetics of oral and intravenous baclofen at clinically relevant doses, dose escalation crossover study (Example 4)
Type: in vivo, human
run_conditions: human, plasma, iv, 11.5 mg, IV 10 min infusion 11.5 mg, mean
parameter: half-life

compound="NCC(CC(=O)O)c1ccc(Cl)cc1 (racemic)" parameter=half-life measured="4.97 h"

###

protocol_summary: Pharmacokinetics of oral and intravenous baclofen at clinically relevant doses, dose escalation crossover study (Example 4)
Assay type: in vivo, human
run_conditions: human, plasma; PO 10 mg (cohort 1), mean; read-out: Bioavailability
parameter: bioavailability (%)

molecule="NCC(CC(=O)O)c1ccc(Cl)cc1 (racemic)" measured=102

###

protocol_summary: Pharmacokinetics of oral and intravenous baclofen at clinically relevant doses, dose escalation crossover study (Example 4)
Type: in vivo, human
run_conditions: human, plasma, iv, 15 mg, IV 60 min infusion 15 mg, mean
parameter: Cmax (ng/mL)

compound="NCC(CC(=O)O)c1ccc(Cl)cc1 (racemic) [Baclofen, 4-amino-3-(4-chlorophenyl) butanoic acid]" parameter=Cmax unit_abbreviation=ng/mL measured=382

###

protocol_summary: Pharmacokinetics of oral and intravenous baclofen at clinically relevant doses, dose escalation crossover study (Example 4)
Type: in vivo, human
run_conditions: human, plasma, po; data from all cohorts combined; read-out: absolute oral bioavailability, range
parameter: bioavailability

compound="NCC(CC(=O)O)c1ccc(Cl)cc1 (racemic) [Baclofen, 4-amino-3-(4-chlorophenyl) butanoic acid]" parameter=bioavailability measured="42 to 132%"

###

protocol_summary: Pharmacokinetics and bioavailability of oral vs intravenous baclofen, randomized open-label 2-way crossover study (Example 3)
Assay type: in vivo, human
run_conditions: human; 5 mg IV over 15 minutes, single dose, plasma, mean ± SD, 12 volunteers
parameter: Cmax (ng/mL)

molecule="NCC(CC(=O)O)c1ccc(Cl)cc1 (racemic) [Baclofen, 4-amino-3-(4-chlorophenyl) butanoic acid]" unit_abbreviation=ng/mL measured=310

###

protocol_summary: Pharmacokinetics of oral and intravenous baclofen at clinically relevant doses, dose escalation crossover study (Example 4)
Assay type: in vivo, human
run_conditions: human, plasma, iv, 15 mg, IV 10 min infusion 15 mg, mean
parameter: Cmax

molecule="NCC(CC(=O)O)c1ccc(Cl)cc1 (racemic)" measured="720 ng/mL"

###

protocol_summary: Pharmacokinetics of oral and intravenous baclofen at clinically relevant doses, dose escalation crossover study (Example 4)
Format: in vivo, human
run_conditions: human, plasma, iv, 15 mg, IV 60 min infusion 15 mg, mean
parameter: half-life (h)

compound="NCC(CC(=O)O)c1ccc(Cl)cc1 (racemic)" parameter=half-life measured=6.22

###

protocol_summary: Pharmacokinetics and bioavailability of oral vs intravenous baclofen, randomized open-label 2-way crossover study (Example 3)
Type: in vivo, human
run_conditions: human, plasma, oral, 10 mg, 10 mg oral tablet, absolute, vs 5 mg IV, mean ± SD
Protocol: Twelve healthy human volunteers were recruited. The volunteers were medication free for 48 hours before, during, and 24 hours after the administration of the study drug. […] Study plasma samples were prepared by adding 50 μL of a 500 μg/mL levetiracetam solution (internal standard) to 250 μL of K2 ethylenediaminetetraacetic acid (EDTA) human plasma. […] The assay was linear over the range 20-400 ng/mL with a lower limit of quantification of 20 ng/mL. […]
parameter: bioavailability

molecule="NCC(CC(=O)O)c1ccc(Cl)cc1 (racemic)" measured=74%

###

protocol_summary: Pharmacokinetics and bioavailability of oral vs intravenous baclofen, randomized open-label 2-way crossover study (Example 3)
Assay type: in vivo, human
run_conditions: human, plasma; 5 mg IV, mean ± SD
parameter: AUC(0-inf) (ng·h/mL)

compound="NCC(CC(=O)O)c1ccc(Cl)cc1 (racemic)" measured=707
